- Tested on: L1210 leukemia ip in BDF1 mice, survival T/C
- assay_method_text: NCI In Vivo Anticancer Drug Screen. Data for tumor model L1210 Leukemia (intraperitoneal) in B6D2F1 (BDF1) mice
- setup_conditions: endpoint: mean survival time; dose: 100.0 mg/kg/injection; schedule: Q01DX009 (ip); vehicle: saline; higher = longer survival
Inconclusive results and toxic doses are left out.
measured_endpoint: T/C

CC#CCOCC1CO1 (stereo not drawn) | 100 % of control

Kindly give each listed record's T/C.
1. CCOc1ccccc1C(N)=O
2. O=C(C[n+]1ccccc1)c1ccc(Br)cc1

Reply text:
1: 96 % of control; 2: 105 % of control
